# Test system: leukemia cell lines
# Protocol Details: Resazurin cell viability assay on leukemia cell lines (72 h growth inhibition, GI50)
# Assay type: cell-based
# Experimental Parameters: Homo sapiens, MV4-11 cells
Property Label: GI50

The cases that follow already have their GI50 on record.
Cc1cnc(N[C@H]2CC[C@H](O)CC2)nc1-c1cnc2ccc(Nc3cncnc3)cn12: > 10 µM
Fc1cnc(NC2CCNCC2)nc1-c1cnc2ccc(-c3ccccc3)cn12: 0.003 µM

Exam item: Need GI50 of Cc1cnc(N[C@H]2CC[C@H](C(=O)O)CC2)nc1-c1cnc2ccc(Nc3cncnc3)cn12 , thanks.
Marked response: > 10 µM

###

# System: CDK6/D3 (Homo sapiens, UniProt Q00534)
# Sequence (Q00534 whole entry): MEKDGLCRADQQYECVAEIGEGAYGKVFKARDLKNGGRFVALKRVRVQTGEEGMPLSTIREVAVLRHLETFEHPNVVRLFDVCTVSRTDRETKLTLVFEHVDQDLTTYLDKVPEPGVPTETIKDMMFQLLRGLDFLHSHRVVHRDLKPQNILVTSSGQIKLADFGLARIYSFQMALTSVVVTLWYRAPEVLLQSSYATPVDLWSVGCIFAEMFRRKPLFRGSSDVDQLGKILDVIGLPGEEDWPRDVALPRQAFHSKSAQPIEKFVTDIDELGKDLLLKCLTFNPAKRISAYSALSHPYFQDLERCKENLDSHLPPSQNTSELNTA
# Sequence (P30281 whole entry partner): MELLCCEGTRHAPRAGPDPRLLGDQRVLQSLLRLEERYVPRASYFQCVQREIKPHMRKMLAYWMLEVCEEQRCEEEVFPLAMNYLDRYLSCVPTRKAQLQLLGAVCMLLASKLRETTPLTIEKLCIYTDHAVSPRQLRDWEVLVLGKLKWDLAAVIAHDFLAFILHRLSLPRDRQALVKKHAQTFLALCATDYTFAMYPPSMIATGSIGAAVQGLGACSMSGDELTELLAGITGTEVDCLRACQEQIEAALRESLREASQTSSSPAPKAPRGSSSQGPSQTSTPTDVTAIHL
# Protocol Details: ADP Glo Kinase assay CDK6/D3
# Assay type: biochemical
# Experimental Parameters: CDK6D3; compound at 10 μM; read-out: residual activity (%) at 10 μM CDK6D3
Property Label: remaining activity at 10 µM (%)

Cc1cnc(N[C@]23C[C@@]4(C)C[C@](C)(C[C@](O)(C4)C2)C3)nc1-c1cnc2ccc(Nc3cccnc3)cn12: 100

[I] C[C@]12C[C@]3(C)C[C@](O)(C1)C[C@](Nc1ncc(F)c(-c4cnc5ccc(-c6ccccc6)cn45)n1)(C2)C3
[II] COC(=O)CN1CCC(Nc2ncc(F)c(-c3cnc4ccccn34)n2)CC1
Exam item: Parameter metric = remaining activity at 10 µM. Return the lower-valued option from I and II . Write down the label of the entry you select.
Marked response: II
(II: 39%, I: 100%)

###

# System: CDK9/T1 (Homo sapiens, UniProt P50750)
# Sequence (P50750 whole entry): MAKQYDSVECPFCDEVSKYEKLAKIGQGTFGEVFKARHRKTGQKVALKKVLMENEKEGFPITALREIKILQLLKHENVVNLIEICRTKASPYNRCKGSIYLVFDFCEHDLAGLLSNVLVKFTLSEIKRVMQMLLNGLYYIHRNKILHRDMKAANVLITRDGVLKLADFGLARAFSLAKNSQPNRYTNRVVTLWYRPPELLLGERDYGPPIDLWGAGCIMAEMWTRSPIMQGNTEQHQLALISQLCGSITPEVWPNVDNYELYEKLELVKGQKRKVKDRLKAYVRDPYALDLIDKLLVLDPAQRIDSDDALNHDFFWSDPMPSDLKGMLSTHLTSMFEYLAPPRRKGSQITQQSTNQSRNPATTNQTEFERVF
# Sequence (O60563 whole entry partner): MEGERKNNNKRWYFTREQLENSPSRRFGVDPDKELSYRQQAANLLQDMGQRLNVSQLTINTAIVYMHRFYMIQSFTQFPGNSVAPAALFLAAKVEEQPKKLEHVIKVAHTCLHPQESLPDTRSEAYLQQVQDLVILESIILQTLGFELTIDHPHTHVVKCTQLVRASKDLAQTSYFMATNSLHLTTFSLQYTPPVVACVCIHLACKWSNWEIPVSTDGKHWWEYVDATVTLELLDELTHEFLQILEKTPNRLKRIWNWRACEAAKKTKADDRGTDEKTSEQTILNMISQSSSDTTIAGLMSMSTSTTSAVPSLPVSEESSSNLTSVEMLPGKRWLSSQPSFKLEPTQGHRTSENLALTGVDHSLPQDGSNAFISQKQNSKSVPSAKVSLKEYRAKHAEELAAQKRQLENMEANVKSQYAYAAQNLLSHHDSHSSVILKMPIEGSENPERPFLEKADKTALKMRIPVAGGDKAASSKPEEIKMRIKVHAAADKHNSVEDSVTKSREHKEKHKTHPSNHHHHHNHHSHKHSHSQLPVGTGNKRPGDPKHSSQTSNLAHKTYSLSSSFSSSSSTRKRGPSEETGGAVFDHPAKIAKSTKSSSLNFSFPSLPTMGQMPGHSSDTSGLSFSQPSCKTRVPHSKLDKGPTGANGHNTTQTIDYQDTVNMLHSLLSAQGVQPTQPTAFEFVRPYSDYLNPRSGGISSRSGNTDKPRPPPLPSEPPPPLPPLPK
# Protocol Details: ADP Glo Kinase assay CDK9/T1
# Assay type: biochemical
# Experimental Parameters: CDK9T1; read-out: CDK inhibition, Ki (μM) CDK9T1
Property Label: Ki (µM)

// known answers, use as guide
N[C@H]1CC[C@H](Nc2ncc(F)c(-c3cnc4cc(-c5ccccc5)ccn34)n2)CC1: 0.007
Cc1cnc(N[C@H]2CC[C@H](O)CC2)nc1-c1cnc2ccccn12: 0.161
Cc1cnc(N[C@H]2CC[C@H](N)CC2)nc1-c1cnc2ccc(-c3ccc(N4CCOCC4)nc3)cn12: 0.49

[A] Cc1cnc(N[C@H]2CC[C@H](N)CC2)nc1-c1cnc2ccc(NC(=O)Cc3ccccc3)cn12
[B] Cc1cnc(N[C@H]2CC[C@H](N)CC2)nc1-c1cnc2ccc(Nc3cncc(F)c3)cn12
Exam item: Kindly identify which of A and B has the larger recorded Ki value. Answer format: the label of the selected item.
Marked response: A

###

# Test system: leukemia cell lines
# Protocol Details: Resazurin cell viability assay on leukemia cell lines (72 h growth inhibition, GI50)
# Type: cell-based
# Experimental Parameters: Homo sapiens, MV4-11 cells
Some molecules, each annotated with its measured GI50.

Recorded GI50, per entry:
CC(=O)NC1CCC(Nc2ncc(C)c(-c3cnc4ccc(Nc5cncnc5)cn34)n2)CC1 (stereo not drawn): > 10 µM
N[C@H]1CC[C@H](Nc2ncc(F)c(-c3cnc4ccc(C(F)(F)F)cn34)n2)CC1: < 0.001 µM

Exam item: What does the record list as GI50 for N[C@H]1CC[C@H](Nc2ncc(F)c(-c3cnc4ccc(Nc5cccc(F)c5)cn34)n2)CC1 ?
Marked response: < 0.001 µM

###

# System: T1, CDKs and other kinases (Homo sapiens, UniProt P24941)
# T1 construct: other: CDK2A; residual activity (%) at 10 μM CDK2A; compound at 10 μM
# Protocol Details: Radiometric kinase assay (Eurofins Pharma Discovery or Reaction Biology Corporation Kinase Profiler)
# Format: biochemical
# Experimental Parameters: CDK2A; compound at 10 μM; read-out: residual activity (%) at 10 μM CDK2A
# Method: Eurofins Pharma Discovery or Reaction Biology Corporation Kinase Profiler services were used to measure inhibition of CDKs and other kinases by radiometric assay. Inhibition of CDK4/D1, CDK6/D3 and CDK9/T1 were also determined in-house using ADP Glo Kinase assays (Promega Corporation, Madison, USA). […] Luminescence was measured using an EnVision Multilabel plate reader (PerkinElmer, Buckinghamshire, UK). […]
Property Label: remaining activity at 10 µM (%)

COc1cccc(-c2ccc3ncc(-c4nc(N[C@H]5CC[C@H](N)CC5)ncc4C)n3c2)c1: 31
N[C@H]1CC[C@H](Nc2ncc(F)c(-c3cnc4cc(Nc5cccnc5)ccn34)n2)CC1: 0
Cc1cnc(N[C@H]2CC[C@H](N3CCCC3)CC2)nc1-c1cnc2ccc(-c3ccccc3)cn12: 61
Cc1cnc(N[C@H]2CC[C@H](N3CCC3)CC2)nc1-c1cnc2ccc(-c3ccccc3)cn12: 57

[1] COc1cnc(N[C@H]2CC[C@H](N)CC2)nc1-c1cnc2ccc(-c3ccccc3)cn12
[2] COCCN[C@H]1CC[C@@H](Nc2ncc(C)c(-c3cnc4ccc(-c5ccccc5)cn34)n2)CC1
Exam item: Of 1 versus 2 , which is the one with smaller reported remaining activity at 10 µM? Use the label to indicate which entry you chose.
Marked response: 1
(1: 7%, 2: 23%)
